Kindly supply the reported inhibition values for the records listed here.
Test system: GTPase KRas (Homo sapiens), P01116 [UNDEFINED MUTATION]
Sequence (P01116 whole entry, looked up, change not shown): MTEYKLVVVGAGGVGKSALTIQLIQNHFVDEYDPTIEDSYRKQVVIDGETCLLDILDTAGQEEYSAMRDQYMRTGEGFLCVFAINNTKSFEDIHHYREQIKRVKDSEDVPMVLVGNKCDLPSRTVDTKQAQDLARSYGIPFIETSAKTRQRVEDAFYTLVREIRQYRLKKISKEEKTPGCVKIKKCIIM
Assay summary: Inhibition of KRas mutant in human HCT116 cells […] assessed as cell viability by measuring ATP at 20 uM relative to control
Type: cell-based
Form entry: enter the amount, then its unit.

Substance smiles: CCCCc1c2c(c(C)c3c1Oc1ccccc1O3)C(=O)OC2
Assay endpoint: inhibition
Value: 2%
--
Substance smiles: CCCCCCc1c2c(c(C)c3c1C(=O)SC3)Oc1ccccc1O2
Assay endpoint: inhibition
Value: 18%
--
Substance smiles: CCCCc1c2c(c(C)c3c1C(=O)OC3)Oc1ccccc1O2
Assay endpoint: inhibition
Value: 80%
--
Substance smiles: Cc1c2c(c(CCCCBr)c3c1Oc1ccccc1O3)C(=O)OC2
Assay endpoint: inhibition
Value: 53%
--
Substance smiles: Cc1c2c(c(CCCCBr)c3c1C(=O)OC3)Oc1ccccc1O2
Assay endpoint: inhibition
Value: 28%
--
Substance smiles: CCCCCCc1c2c(c(C)c3c1Oc1ccccc1O3)C(=O)SC2
Assay endpoint: inhibition
Value: 3.4%

Please give inhibition for each item listed below.
1. CCCCCc1c2c(c(C)c3c1C(=O)OC3)Oc1ccc(OC)cc1O2
2. CCCCCCc1c2c(c(C)c3c1Oc1ccccc1O3)C(=O)OC2
3. CCCCCc1c2c(c(C)c3c1Oc1ccccc1O3)C(=O)OC2
4. CCCCCc1c2c(c(C)c3c1C(=O)OC3)Oc1ccccc1O2
5. CCCCCCc1c2c(c(C)c3c1C(=O)OC3)Oc1ccccc1O2

A:
6%
2%
31%
66%
62%
